Target: PaLspA (Pseudomonas aeruginosa)
Construct: made in house
Sequence (Q9HVM5 whole entry): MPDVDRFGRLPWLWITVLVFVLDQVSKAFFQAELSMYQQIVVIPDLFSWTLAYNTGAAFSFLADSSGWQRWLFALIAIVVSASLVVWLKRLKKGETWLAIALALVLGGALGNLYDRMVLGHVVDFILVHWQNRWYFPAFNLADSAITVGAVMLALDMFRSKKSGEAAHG
Test: Enzyme inhibition assay of rationally designed analogues with PaLspA
Type: biochemical
Details: peptide incubated with PaLspA
Bridge positions count the residues as written; N and C are the ends. Square brackets hold non-standard residues; d marks the D form. Peptide text beside a SMILES is read from it. * marks the point of attachment. aIle = CC[C@@H](C)[C@H](N)C(=O)O; NMeL = CN[C@@H](CC(C)C)C(=O)O; Pentanoyl = CCCCC(=O)*; Butyryl = CCCC(=O)*
quantity_name: reduction in PaLspA enzyme activity (in words)

# compound, obs_value
measured = [
    ("CCCCC(=O)N[C@H]1CCCCNC(=O)[C@H](CO)NC(=O)[C@H](CO)NC(=O)[C@H]([C@H](C)CC)NC(=O)[C@H](CC(C)C)N(C)C1=O [S7, C5-Globomycin(N-Lys)] (Pentanoyl-K[NMeL][aIle]SS; lactam 1-C)", "no reduction in activity"),
    ("CCCC(=O)N[C@H]1CCCCNC(=O)[C@H](CO)NC(=O)[C@H](CO)NC(=O)[C@H]([C@H](C)CC)NC(=O)[C@H](CC(C)C)N(C)C1=O [S6, C4-Globomycin(N-Lys)] (Butyryl-K[NMeL][aIle]SS; lactam 1-C)", "no reduction in activity"),
]
